test system: P. falciparum stage V gametocytes; design: BacTiter-Glo ATP luminescence viability of purified stage V gametocytes in 384-well plates, per cent inhibition versus DMSO; conditions: 48 h, 5 µM; inhibitor
Hit rate of the full screen: of about 13,000 compounds, about 3,200 (25%) showed an effect of 50% or more. This is one part of the list.
# % Inhibition values compiled below
Attribute Measured: % Inhibition (%)

>>> df
                                    compound  attribute_measured  unit_of_measurement  measured_result
 0  N#Cc1cccc(NC(=O)Nc2ccc(CC(=O)N3CCc4cc(Cl)c(N5CCN(C/C=C/c6ccccc6)CC5)cc43)cc2)c1        % Inhibition                    %            12.28
 1  CC(C)CNCc1cccc(-c2cccc(CN(CCCN3CCN(C)CC3)C(=O)Nc3ccccc3)c2)c1        % Inhibition                    %             80.6
 2                 Nc1c2ccccc2nc2cc(Cl)ccc12        % Inhibition                    %            16.16
 3  O=C(Nc1cccc(C(F)(F)F)c1)c1cccc(S(=O)(=O)NCC2CCN(CC3CCCCC3)CC2)c1        % Inhibition                    %           -26.22
 4  CCCCN1C(=O)C2CC(=O)CC(C3CCCCC3)C2C1=O (centres unmarked)        % Inhibition                    %            18.42
 5  CC(=O)Nc1cccc(NC(=O)CSc2ccc(-c3nc4ccccc4[nH]3)cn2)c1        % Inhibition                    %            49.75
 6                       COc1csc2cc(Br)ccc12        % Inhibition                    %            9.347
 7  O=c1cc(NCc2ccccc2NCc2ccc(Cl)c(Cl)c2)[nH]c2ccccc12        % Inhibition                    %          -0.9265
 8  CN1CCN(CCCN(Cc2cccc(-c3cccc(CNCCc4ccccc4)c3)c2)C(=O)Nc2ccccc2)CC1        % Inhibition                    %            106.2
 9  CCCCCN1CCC(CNS(=O)(=O)c2ccc(C(=O)Nc3cccc(C(F)(F)F)c3)cc2)CC1        % Inhibition                    %           -3.109
10  COc1ccc(-c2nnc(Sc3ccc(C#N)c([N+](=O)[O-])c3)n2CCC(C)C)cc1        % Inhibition                    %             7.84
11  CCn1c(Sc2ccc(C#N)c([N+](=O)[O-])c2)nnc1-c1ccc(OC)cc1        % Inhibition                    %            29.96
12  CC(C)CCn1c(Sc2ccc(C#N)c([N+](=O)[O-])c2)nnc1-c1ccc(Cl)cc1        % Inhibition                    %            54.47
13  COc1cccc(-c2cnc(-c3ccncc3)nc2C2CCN(Cc3ccc(NC(C)=O)cc3)CC2)c1        % Inhibition                    %            1.604
14  CN1CCN(c2cc(NC(=O)Nc3cccc(Cl)c3Cl)ccc2Cl)CC1        % Inhibition                    %           -11.69
15  O=C(Nc1ccc(OC2CCN(CC3CC3)CC2)c(Cl)c1)c1ccc2ncccc2c1        % Inhibition                    %            41.88
16  CCn1c(Sc2ccc(C#N)c([N+](=O)[O-])c2)nnc1-c1ccc(Cl)cc1        % Inhibition                    %               65
